test: chemical genetic growth profiling, strain panel (AID 1159580);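 also: tested at 20 µM; growth read once vehicle control cultures reached saturation at 30 °C; 1 = growth at the plate median or of vehicle wells; lower values mean less growth of the strain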; conditions: S. cerevisiae deletion strains, growth OD, locus YBR009C, strain hhf1, active compounds read low
The campaign covered roughly 5,500 compounds. About 2,000 (36%) were called active. Roughly 18% stayed inconclusive and do not appear here. Some of the results follow.
The compounds listed here are annotated with their normalized growth.
Please respond with just the number, no unit label.

# lookup: normalized growth of `O=C(OCc1ccccc1)c1ccccc1`
0.954

# lookup: normalized growth of `C[n+]1ccccc1/C=N/O`
1.03

# lookup: normalized growth of CC1=CCCC2C1(C)CCC(C)C2(C)CC/C(C)=C/C[n+]1cn(C)c2c(N)ncnc21 (stereo unspecified)
0.928

# lookup: normalized growth of `CCCOc1ccc2nc(NC(=O)OC)[nH]c2c1`
1.01

# lookup: normalized growth of CC12CCC(=O)C=C1CCC1C2[C@@H](O)CC2(C)C1CC[C@]2(O)C(=O)COP(=O)(O)O (stereo partly specified)
0.994
